Where do the numbers come from? From ChEMBL document CHEMBL1201862.

System: MDA-MB-231
EXPERIMENT NOTES: NCI tumour cell line growth inhibition, 48 h
Active and inactive are the calls of the source. No stated cut-off is given here; in the data, active = GI50 up to about 1.1 µM and inactive = higher.
REPORTED PROPERTY: GI50

Exercise: Please look at this compound and report its GI50: COC(=O)C1CC=C(SC(=O)c2ccccc2)N1C(=O)c1ccccc1 (configuration not stated)
Solution: > 100 µM (inactive)

Exercise: Please look at this compound and report its GI50: Fc1ccc(C(=C2CCN(CCc3ccc4[nH]c(=S)[nH]c4c3)CC2)c2ccc(F)cc2)cc1
Solution: 4.43 µM (inactive)

Exercise: Please look at this compound and report its GI50: CN(Nc1cc(=O)[nH]c(=O)[nH]1)c1ccccc1
Solution: > 100 µM (inactive)

Exercise: Please look at this compound and report its GI50: CC(C)(NC(=O)OCc1ccccc1)C(=O)OC(=O)C(C)(C)NC(=O)OCc1ccccc1
Solution: > 100 µM (inactive)

Exercise: Please look at this compound and report its GI50: Cc1ccc2c(c1)OC1Nc3ccccc3C1=C2O (configuration not stated)
Solution: 20.6 µM (inactive)

Exercise: Please look at this compound and report its GI50: CC(=O)OCCCCn1cc(Cn2ccc(=O)n(Cc3cn(CCCCOC(C)=O)nn3)c2=O)nn1
Solution: > 100 µM (inactive)

Exercise: Please look at this compound and report its GI50: CN1CCCCC1CCN1c2ccccc2Sc2ccc([S+](C)[O-])cc21 (configuration not stated)
Solution: > 100 µM (inactive)

---

System: SF-539
EXPERIMENT NOTES: NCI tumour cell line growth inhibition, 48 h
Active and inactive are the calls of the source. Rule as the data show it: active = GI50 up to about 1.1 µM and inactive = higher.
Hi! Could you answer with just one of these? true = active, false = inactive

Exercise: What was the test verdict on Cc1nnc(S(=O)(=O)c2ccc(/N=N/c3c(N)nc(N)nc3N)cc2)s1 ?
Solution: false

Exercise: What was the test verdict on O=P(Nc1ccccc1)(Oc1ccccc1)N1CCN(c2ccccc2)CC1 (configuration not stated) ?
Solution: false

Exercise: What was the test verdict on CO[C@H]1C[C@@H]2CC[C@@H](C)[C@@](O)(O2)C(=O)C(=O)N2CCCC[C@H]2C(=O)O[C@H]([C@H](C)C[C@@H]2CC[C@@H](O)[C@H](OC)C2)CC(=O)[C@H](C)C=C(C)[C@@H](O)[C@@H](OC)C(=O)[C@H](C)C[C@H](C)/C=C/C=C/C=C1C ?
Solution: true

Exercise: What was the test verdict on Cc1cc(N(CCC#N)S(=O)(=O)c2ccccc2)ccc1/C=C1N=C(/C=C/c2ccccc2)OC\1=O ?
Solution: false

Exercise: What was the test verdict on CC(=O)NNc1nc(C)c(C(=O)NNC(=O)C(=O)Nc2cccc(C(C)=O)c2)s1 ?
Solution: false

Exercise: What was the test verdict on Cc1cc(-c2c(F)cc3c4nn([C@H]5CC[C@@H](N(C)C)CC5)c(=O)c-4cn(C4CC4)c3c2F)cc(C)n1 ?
Solution: true

Exercise: What was the test verdict on c1ccc(COC2(OCc3ccccc3)CC3OC2C2NN=NC32)cc1 (configuration not stated) ?
Solution: false

---

System: 786-0
EXPERIMENT NOTES: NCI tumour cell line growth inhibition, 48 h
Active and inactive are the calls of the source. Cut-off read from the data, not from the text of the source: active = GI50 up to about 1.1 µM and inactive = higher.
Hi! Could you answer with just one of these? TRUE for active, FALSE for inactive

Exercise: What was the test verdict on CC[N+](C)(CC)CCNC(=O)C(O)(c1ccccc1)c1ccccc1 ?
Solution: FALSE

Exercise: What was the test verdict on CO[C@H]1C[C@@H]2CC[C@@H](C)[C@@](O)(O2)C(=O)C(=O)N2CCCC[C@H]2C(=O)O[C@H]([C@H](C)C[C@@H]2CC[C@@H](O)[C@H](OC)C2)CC(=O)[C@H](C)C=C(C)[C@@H](O)[C@@H](OC)C(=O)[C@H](C)C[C@H](C)/C=C/C=C/C=C1C ?
Solution: TRUE

Exercise: What was the test verdict on Fc1ccc(C(=C2CCN(CCc3ccc4[nH]c(=S)[nH]c4c3)CC2)c2ccc(F)cc2)cc1 ?
Solution: FALSE

Exercise: What was the test verdict on CC(N/N=N/c1ccc(-c2nc3ccccc3[nH]2)cc1)C(=O)O (configuration not stated) ?
Solution: FALSE

Exercise: What was the test verdict on COC(=O)[C@@H]1O[C@]12C(CO[Si](C)(C)C(C)(C)C)OC(n1ccc(=O)[nH]c1=O)C2O[Si](C)(C)C(C)(C)C (some centres not stated) ?
Solution: FALSE

Exercise: What was the test verdict on O=c1[nH]c(=O)n(C2CC(O)C(CO)O2)cc1/N=N/NCCCc1ccccc1 (configuration not stated) ?
Solution: FALSE

Exercise: What was the test verdict on CCOC(=O)CCC(NC(=O)C(CCC(=O)OCC)NC(=O)C(Cc1ccc([N+](=O)[O-])cc1)NC(C)=O)C(=O)NNC(=O)OC(C)(C)C (configuration not stated) ?
Solution: FALSE

---

Field: GI50. Provide a value for each of the compounds that follow.
Test system: SF-268
EXPERIMENT NOTES: NCI tumour cell line growth inhibition, 48 h
Activity calls are given as the source filed them. No stated cut-off is given here; in the data, active = GI50 up to about 1.1 µM and inactive = higher.

Exercise: Please look at this compound and report its GI50: CCCCCCCC/C=C\CCCCCCCC(=O)OC[C@]1(CO)CCC(=O)O1
Solution: > 100 µM (inactive)

Exercise: Please look at this compound and report its GI50: O=C(NC12CC3CC(CC(C3)C1)C2)C(=O)c1c[nH]c2ccc([N+](=O)[O-])cc12
Solution: 9.48 µM (inactive)

Exercise: Please look at this compound and report its GI50: CCCCC(C(=O)CCC(=O)Nc1ccc(Cl)c(Cl)c1)C(=O)C(C)C (configuration not stated)
Solution: > 100 µM (inactive)

Exercise: Please look at this compound and report its GI50: CN1C(=O)C(CCO)(C(C)(C)C)c2ccccc21 (configuration not stated)
Solution: > 100 µM (inactive)

Exercise: Please look at this compound and report its GI50: CC(C)(C)OC(=O)N1CCC(C(=O)O)CC1
Solution: > 100 µM (inactive)

Exercise: Please look at this compound and report its GI50: CC(=O)C(O)N1C(=O)C=CC1=O (configuration not stated)
Solution: 7.05 µM (inactive)

Exercise: Please look at this compound and report its GI50: C=C1C(=O)O[C@@H]2C[C@@H](C)[C@@H]3C=CC(=O)[C@@]3(C)[C@@H](O)[C@H]12
Solution: 3.5 µM (inactive)

Exercise: Please look at this compound and report its GI50: COc1ccc(C2N(c3ccc(C)c(N=C=O)c3)C(=O)N3C(c4ccc(OC)cc4)N(c4ccc(C)c(N=C=O)c4)C(=O)N23)cc1 (configuration not stated)
Solution: > 100 µM (inactive)

Exercise: Please look at this compound and report its GI50: CCCCCCCCCC/C=C/CC(=O)SCCNC(=O)CCNC(=O)[C@@H](O)C(C)(C)COP(=O)(O)OP(=O)(O)OCC1OC(n2cnc3c(N)ncnc32)C(O)C1OP(=O)(O)O (some centres not stated)
Solution: > 10 µM (inactive)

Exercise: Please look at this compound and report its GI50: CCCCN(CCCC)/C(=N\C#N)NCc1ccccc1
Solution: 29.4 µM (inactive)

Exercise: Please look at this compound and report its GI50: CC(=O)OCc1cc(OC(C)=O)c2cc3c(OC(C)=O)cccc3c(OC(C)=O)c2c1
Solution: 21.2 µM (inactive)

Exercise: Please look at this compound and report its GI50: CC(C)COC(=O)N1N=NC2C3OC(CC3=O)C21 (configuration not stated)
Solution: > 100 µM (inactive)

Exercise: Please look at this compound and report its GI50: O=c1[nH]cc(OCC(F)(F)F)c(=O)[nH]1
Solution: > 100 µM (inactive)

Exercise: Please look at this compound and report its GI50: O=c1cc(N2CCOCC2)oc2c(-c3ccccc3)cccc12
Solution: 2.28 µM (inactive)

Exercise: Please look at this compound and report its GI50: O=[N+]([O-])c1ccc2nc(Nc3ccccc3)c(Nc3ccccc3)nc2c1
Solution: 1.62 µM (inactive)

Exercise: Please look at this compound and report its GI50: O=C(NCCO)c1ccc(Cl)cc1
Solution: > 100 µM (inactive)

Exercise: Please look at this compound and report its GI50: COc1cc2nc(-c3cccs3)nc(Nc3cccc(Cl)c3)c2cc1OC
Solution: 31.3 µM (inactive)

---

Field: GI50. Provide a value for each of the compounds that follow.
System: KM12
EXPERIMENT NOTES: NCI tumour cell line growth inhibition, 48 h
Calls of active or inactive are those of the source. Cut-off read from the data, not from the text of the source: active = GI50 up to about 1.1 µM and inactive = higher.

Exercise: Please look at this compound and report its GI50: COC(=O)C1CC=C(SC(=O)c2ccccc2)N1C(=O)c1ccccc1 (stereo not given)
Solution: > 100 µM (inactive)

Exercise: Please look at this compound and report its GI50: C/C(=N\NC(=O)C[n+]1ccccc1)c1sc(-c2nc(C)c(/C(C)=N/NC(=O)C[n+]3ccccc3)s2)nc1C
Solution: > 100 µM (inactive)

Exercise: Please look at this compound and report its GI50: CC(C)(C)C1=NC(=S)SC2=NC(=O)C3(NN21)c1ccccc1-c1ccccc13
Solution: > 10 µM (inactive)

Exercise: Please look at this compound and report its GI50: CC1(C)CCC(C)(C)c2c1ccc(O)c2Cc1c(O)ccc2c1C(C)(C)CCC2(C)C
Solution: 1.95 µM (inactive)

Exercise: Please look at this compound and report its GI50: O=C(NCCc1ccccn1)c1ccc2cc(C(=O)N3CC(CCl)c4ccc([N+](=O)[O-])cc43)[nH]c2c1 (stereo not given)
Solution: > 100 µM (inactive)

Exercise: Please look at this compound and report its GI50: Cc1c(N=C(S)Nc2ccc(Cl)cc2)c(=O)n(-c2ccccc2)n1C
Solution: > 100 µM (inactive)

Exercise: Please look at this compound and report its GI50: COc1cc2c(NCCCCCO)ncnc2c(OC)c1OC
Solution: > 100 µM (inactive)

Exercise: Please look at this compound and report its GI50: Cc1cc(N(CCC#N)S(=O)(=O)c2ccccc2)ccc1/C=C1N=C(/C=C/c2ccccc2)OC\1=O
Solution: > 100 µM (inactive)

Exercise: Please look at this compound and report its GI50: O=C1C=C(NCCc2ccccc2)c2ccccc2C1=O
Solution: 2.63 µM (inactive)

Exercise: Please look at this compound and report its GI50: O=C(CCc1ccccc1)On1c(-c2ccccc2)nc2ccccc2c1=S
Solution: 3.87 µM (inactive)
